Each entry below carries its reported log10 of solubility kinetic.
- Test Context: buffer; pH 7.4; 200.0 µM
Lab note - solubility kinetic converted to log10 from values in µg/mL.

Example entries and their recorded answers appear below.
>>> recorded_value("O=C(c1ccc(Cl)c(S(=O)(=O)N2CCOCC2)c1)N1CCCCCC1")
1.72
>>> recorded_value("CC(OC(=O)c1cccn1C)C(=O)Nc1ccc2c(c1)OCO2 (stereo unspecified)")
1.35
>>> recorded_value("COc1ccc(-c2cc(C(=O)N3CCCCC3)c3ccccc3n2)cc1OC")
1.71

Turning now to a further record.
Query: Write down log10 of solubility kinetic measured for item CC1=C(C(=O)Nc2ccccc2)S(=O)(=O)CCO1
Response: 1.58
